Target Of Assay: T1, NativeRPtag(large)_with_Tags_and_Cys (Thermoanaerobacter tengcongensis)
T1 construct: Unlabeled in anisotropy assays; coupled through the engineered N-terminal Cys to SulfoLink agarose or maleimide plates in column, pull-down and ELISA assays
T1 chain: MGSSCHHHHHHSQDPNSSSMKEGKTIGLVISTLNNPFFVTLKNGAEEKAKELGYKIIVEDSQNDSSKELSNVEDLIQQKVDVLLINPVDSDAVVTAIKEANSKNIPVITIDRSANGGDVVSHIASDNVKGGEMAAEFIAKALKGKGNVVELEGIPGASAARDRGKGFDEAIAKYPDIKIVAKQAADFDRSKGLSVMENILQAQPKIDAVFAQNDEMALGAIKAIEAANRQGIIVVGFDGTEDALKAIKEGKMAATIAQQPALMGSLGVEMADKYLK
Assay Notes: fluorescence anisotropy, association kinetics
No end group written: not given here. *: point of attachment. RhodamineB = CCN(CC)c1ccc2c(-c3ccccc3C(=O)*)c3ccc(=[N+](CC)CC)cc-3oc2c1
Value Kind: Keq (S-S*)
# print the numeric value only

Observe how each entry below is paired with its result.
>>> observed("RhodamineB-KIPNFIPAELKLITKA [RPtag(small) Nd2, Cd3, e18a]")
0.3
>>> observed("RhodamineB-GEKIPNFIPAELKAITKENVQ [RPtag(small) l14a]")
1.8

Exercise: Quick check: Keq (S-S*) of RhodamineB-GEKIPNFIPAELKLIAKENVQ [RPtag(small) t16a] ?
Solution: 2.5

Exercise: Quick check: Keq (S-S*) of RhodamineB-PAELKLITKE [RPtag(small) Nd8, Cd3] ?
Solution: 6.5
